System: HCC-366
Assay: relative viability (nuclei count vs DMSO), 5 days (fraction); higher = more cells survive
Conditions: first compound 0.1265 µM
measured_metric: relative viability
# respond with the number and nothing more

Take a look at these entries with their results.
[
  {
    "molecule": "Clc1ccc(Nc2nnc(Cc3ccncc3)c3ccccc23)cc1 [Vatalanib] + CC(=O)Nc1cccc(-n2c(=O)n(C3CC3)c(=O)c3c(Nc4ccc(I)cc4F)n(C)c(=O)c(C)c32)c1 [Trametinib] (partner 0.02 µM)",
    "relative viability": 0.294
  },
  {
    "molecule": "COc1cc(N2CCC(C(N)=O)CC2)ccc1Nc1nc(N)c(Cl)c(Nc2ccccc2S(=O)(=O)C(C)C)n1 [HG-5-88-01] + Nc1ncn([C@H]2C[C@H](O)[C@@H](CO)O2)c(=O)n1 [Decitabine] (partner 2 µM)",
    "relative viability": 0.357
  }
]

Pending molecule:
Query: Look up relative viability for this molecule: Clc1ccc(Nc2nnc(Cc3ccncc3)c3ccccc23)cc1 [Vatalanib] + N=C(N)NC(=N)NCCc1ccccc1 [Phenformin] (partner 250 µM)
Response: 0.554

---

Test system: NCI-H1793
Test: relative viability (nuclei count vs DMSO), 5 days (fraction); higher = more cells survive
Details: first compound 0.04 µM
In this section, each of the compounds is paired with its reported relative viability.
The answer should be a number; do not append a unit.

Query: Requested read-out: relative viability. Entry: Clc1ccc(Nc2nnc(Cc3ccncc3)c3ccccc23)cc1 [Vatalanib] + Nc1nc2[nH]cc(CCc3ccc(C(=O)N[C@@H](CCC(=O)O)C(=O)O)cc3)c2c(=O)[nH]1 [Pemetrexed] (partner 0.2 µM)
Response: 0.789

Query: Consider the compound C[C@@H]1CN(CC(=O)Nc2ccc3c(c2)Cc2cccc(-c4cc(=O)cc(N5CCOCC5)o4)c2S3)C[C@H](C)O1 + CS(=O)(=O)N1CCN(Cc2cc3nc(-c4cccc5[nH]ncc45)nc(N4CCOCC4)c3s2)CC1 [Pictilisib] (partner 1 µM) and give its measured relative viability.
Response: 0.374

Query: Consider the compound Clc1ccc(Nc2nnc(Cc3ccncc3)c3ccccc23)cc1 [Vatalanib] + CC1(C)CCC(c2ccc(Cl)cc2)=C(CN2CCN(c3ccc(C(=O)NS(=O)(=O)c4ccc(N[C@H](CCN5CCOCC5)CSc5ccccc5)c(S(=O)(=O)C(F)(F)F)c4)cc3)CC2)C1 [Navitoclax] (partner 0.5 µM) and give its measured relative viability.
Response: 0.452

Query: Need relative viability, item C[C@@H]1CN(CC(=O)Nc2ccc3c(c2)Cc2cccc(-c4cc(=O)cc(N5CCOCC5)o4)c2S3)C[C@H](C)O1 + Nc1nc2[nH]cc(CCc3ccc(C(=O)N[C@@H](CCC(=O)O)C(=O)O)cc3)c2c(=O)[nH]1 [Pemetrexed] (partner 0.2 µM)
Response: 0.98

Query: GET /values?readout=relative viability&item= C[C@@H]1CN(CC(=O)Nc2ccc3c(c2)Cc2cccc(-c4cc(=O)cc(N5CCOCC5)o4)c2S3)C[C@H](C)O1 + Cc1cc(Nc2cc(N3CCN(C)CC3)nc(Sc3ccc(NC(=O)C4CC4)cc3)n2)n[nH]1 [Tozasertib] (partner 0.1 µM)
Response: 0.279

Query: What value of relative viability has been recorded for this entry: Clc1ccc(Nc2nnc(Cc3ccncc3)c3ccccc23)cc1 [Vatalanib] + CCNC(=O)c1noc(-c2cc(C(C)C)c(O)cc2O)c1-c1ccc(CN2CCOCC2)cc1 [Luminespib] (partner 0.01 µM)
Response: 0.156

Query: // lookup relative viability for Clc1ccc(Nc2nnc(Cc3ccncc3)c3ccccc23)cc1 [Vatalanib] + Cc1nc(Nc2ncc(C(=O)Nc3c(C)cccc3Cl)s2)cc(N2CCN(CCO)CC2)n1 [Dasatinib] (partner 0.075 µM)
Response: 0.379
